Source of measurements: patent US9580439B2

Catalogue of pIC50 readings, one per entry.
- tested on: FAK (411-686, activated by Src and repurified) (Homo sapiens, UniProt Q05397)
- Sequence (Q05397 411-686, species assumed): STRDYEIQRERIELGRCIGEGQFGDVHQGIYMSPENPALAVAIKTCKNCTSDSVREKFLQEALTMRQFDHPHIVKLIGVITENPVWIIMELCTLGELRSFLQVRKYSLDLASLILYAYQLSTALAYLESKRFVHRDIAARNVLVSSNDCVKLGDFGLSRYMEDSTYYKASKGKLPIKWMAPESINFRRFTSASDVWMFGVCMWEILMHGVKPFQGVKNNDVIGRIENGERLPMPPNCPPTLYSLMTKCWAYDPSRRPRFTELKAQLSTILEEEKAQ
- assay notes: FAK Biochemical Assay (cell-free, HTRF)
- measurement setup: 10 μM ATP, read-out: 50% inhibitory concentrations (IC50) against focal adhesion kinase in the cell-free assay
pIC50: −log10 of the molar value.
quantity name: pIC50

* CNS(=O)(=O)c1ccccc1Nc1cc(Nc2ccccc2S(=O)(=O)NC)c(C(F)(F)F)cn1 | < 5.00
* CN1Cc2cccc(Nc3cc(Nc4cccc5c4C(=O)N(C)C5)c(C(F)(F)F)cn3)c2C1=O | < 5.00
